Data provenance is patent US20110136733A1.

Examples of binders with documented pKi follow.
Biological target: T1, human recombinant GIP receptor (human, UniProt P48546 22-466)
T1 construct: whole, on cells; Membranes of CHO-K1 cells expressing the receptor; also called hGIP receptor
T1 sequence (looked up): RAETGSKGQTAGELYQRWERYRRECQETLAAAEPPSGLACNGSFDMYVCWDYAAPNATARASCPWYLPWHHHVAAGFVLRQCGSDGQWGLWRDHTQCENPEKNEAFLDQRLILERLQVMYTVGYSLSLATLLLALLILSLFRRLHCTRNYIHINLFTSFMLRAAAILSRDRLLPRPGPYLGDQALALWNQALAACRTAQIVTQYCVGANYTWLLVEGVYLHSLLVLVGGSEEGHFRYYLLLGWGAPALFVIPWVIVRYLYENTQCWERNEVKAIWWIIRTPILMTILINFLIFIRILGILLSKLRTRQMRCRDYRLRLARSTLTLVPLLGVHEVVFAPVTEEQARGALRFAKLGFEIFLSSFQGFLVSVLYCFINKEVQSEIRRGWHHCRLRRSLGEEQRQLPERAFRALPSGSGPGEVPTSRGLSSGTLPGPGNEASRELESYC
Assay: [125I]GIP competition, membranes of CHO-K1 cells expressing human GIP receptor
Where no end group is shown, it is not given here. [ ]: non-standard residue; d: D form. Nle = CCCC[C@H](N)C(=O)O; Aib = CC(C)(N)C(=O)O
# reply with the number alone; pKi is -log10 of concentration in mol/L

INSERT INTO measurements (binder, test_result) VALUES
  ('YXPGTFISDYXIAMDKIHQQDFVNWLLAQK (Aib at 2; A5c at 11; C-terminal amide) [(Aib^2, Pro^3, A5c^11)hGIP(1-30)-NH2]', 6.67),
  ('Y[Aib]PGTFISDYSI[Aib][Nle]DKIHQQDFVNWLLAQK-NH2 [(Aib^2, 13, Pro^3, Nle^14)hGIP(1-30)-NH2]', 10.15);

As a next step, examine the binder that follows.
Exam item: May I ask what pKi has been recorded for YXEGTFISDYXIAXDKIHQQDFVNWLLAQKGKKNDWKHNITQ (Aib at 2; A5c at 11; Nle at 14; C-terminal free acid) [(Aib^2, A5c^11, Nle^14)hGIP(1-42)-OH] ?
Marked response: 9.37
